experiment: Mouse pharmacokinetics study, single i.v. injection; assay type: in vivo, male CD1 mice; conditions: male, CD1, mouse, plasma, iv, 10 mg/kg, i.v., mice; read-out: initial distributive half-life
Square brackets hold non-standard residues; d marks the D form. Peptide text beside a SMILES is read from it.
reportedEndpoint: half-life

Task item: Which half-life is reported for this molecule? CC(=O)N[C@H](Cc1ccc(O)cc1)C(=O)N[C@H](CCCNC(=N)N)C(=O)N[C@H](Cc1ccccc1)C(N)=O [Compound 17, Ac-D-Tyr-D-Arg-D-Phe-NH2] (Ac-[dY]-[dR]-[dF]-NH2)
Reply: ~5 min

* * *

system: KMS12 multiple myeloma cells; test: [3H]thymidine incorporation assay in KMS12; format: cell-based, human; settings: Day 6; listed as mDTP3; read-out: IC50 [H^3] thymidine incorporation assay in KMS12
Square brackets hold non-standard residues; d marks the D form. Peptide text beside a SMILES is read from it.
reportedEndpoint: IC50 (nM)
// note: answer is a bare numeric in nM

Task item: Which IC50 is reported for this molecule? CC(=O)N[C@H](Cc1ccc(O)cc1)C(=O)N[C@H](CCCNC(=N)N)C(=O)N[C@H](Cc1ccccc1)C(N)=O [Compound 17, Ac-D-Tyr-D-Arg-D-Phe-NH2] (Ac-[dY]-[dR]-[dF]-NH2)
Reply: 25
